Reference for the values: the supplement of paper PMC4466140

Here, each record is paired with measured SPOT peptide array binding signal intensity data.
# tested-target: ScSla1-D3
# method-summary: SPOT peptide array binding signal intensity (averaged, normalized) (arbitrary units (background-subtracted, floor 0; scale differs between SH3 domains)); higher = stronger binding of the SH3 domain to the peptide
Could you respond with only the numeric value?

{"columns": ["binder", "value-reported"],
 "data": [
  ["HPRFVSPRIPSRIVK", 36],
  ["KIRRSSLMIPNPQQF", 337],
  ["LEFRAILFIPKRAPF", 94.5]
]}

Fill blank: measured SPOT peptide array binding signal intensity of the binder KKIRLIFTYPSTVGR is ____. 57.8
